Target: Gal(b1-4)GlcNAc(b1-3)Gal(b1-4)Glc
Assay: glycan array binding signal (z-score within array); higher = stronger binding
Settings: glycan notation: IUPAC condensed, linker removed
The sample as a whole holds a higher share of the strongest signals than the screen did.
Reported metric: glycan array binding signal (z-score)
Returns: the value as a bare number; no unit string appended.

Kindly note the recorded glycan array binding signal (z-score) for Gal 4 (Homo sapiens), Q8K419 (protein) MAYVPAPGYQPTYNPTLPYKRPIPGGLSVGMSVYIQGMAKENMRRFHVNFAVGQDDGADVAFHFNPRFDGWDKVVFNTMQSGQWGKEEKKKSMPFQKGKHFELVFMVMPEHYKVVVNGNSFYEYGHRLPVQMVTHLQVDGDLELQSINFLGGQPAAAPYPGAMTIPAYPAGSPGYNPPQMNTLPVMTGPPVFNPRVPYVGALQGGLTVRRTIIIKGYVLPTARNFVINFKVGSSGDIALHLNPRIGDSVVRNSFMNGSWGAEERKVAYNPFGPGQFFDLSIRCGMDRFKVFANGQHLFDFSHRFQAFQMVDTLEINGDITLSYVQI , which is 1.11

The binder listed as LecRKVI.2 (protein) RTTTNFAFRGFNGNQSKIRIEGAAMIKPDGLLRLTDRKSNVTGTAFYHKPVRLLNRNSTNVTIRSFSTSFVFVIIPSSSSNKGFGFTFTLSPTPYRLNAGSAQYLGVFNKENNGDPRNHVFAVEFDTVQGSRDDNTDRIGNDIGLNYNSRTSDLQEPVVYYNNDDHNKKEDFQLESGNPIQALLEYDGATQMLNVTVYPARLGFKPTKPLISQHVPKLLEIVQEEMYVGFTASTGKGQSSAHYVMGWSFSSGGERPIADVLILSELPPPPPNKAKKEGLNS has a reported glycan array binding signal (z-score) of -0.296

So for Gal 3 (Canis lupus) (protein) MADSFSLNDALSGSGNPNPQGWPGPWGNQPAGAGGYPGASYPGAYPGQAPPGGYPGQAPPGGYPGQAPPGGYPGQAPPGGYPGQAPPGGYPGQAPPGTYPGPTAPAYPGPTAPGTQPGQPSGPGAYPPPGQPSAPGAYPAAGPFGIPAGPLTVPYDLPLPGGVKPRMLITILGTVRPSANRLALDFKRGNDVAFHFNPRFNEDNKRVIVCNTKLDNIWGKEERQAAFPFESGKPFKIQVLVESDHFKVAVNDAHLLQYNHRMKNLPEISKLGISGDIDLTSASYAMI , the logged glycan array binding signal (z-score) turned out to be 0.512

Record summary for ArathEULS3 TAP (Arabidopsis thaliana) (protein) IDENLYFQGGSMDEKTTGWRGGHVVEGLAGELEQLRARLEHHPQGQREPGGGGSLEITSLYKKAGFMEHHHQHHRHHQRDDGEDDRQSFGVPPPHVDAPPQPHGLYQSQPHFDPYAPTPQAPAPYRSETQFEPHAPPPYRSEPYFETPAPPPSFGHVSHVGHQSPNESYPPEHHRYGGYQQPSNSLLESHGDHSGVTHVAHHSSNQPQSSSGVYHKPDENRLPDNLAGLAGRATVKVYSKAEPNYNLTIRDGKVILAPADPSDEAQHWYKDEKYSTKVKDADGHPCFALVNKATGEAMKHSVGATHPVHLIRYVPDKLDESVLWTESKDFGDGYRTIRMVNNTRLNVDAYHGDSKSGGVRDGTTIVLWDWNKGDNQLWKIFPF : reported glycan array binding signal (z-score) = -0.967
